assay: background-corrected fluorescence of 3'-dye-labeled ssDNA relative to brightest sequence (3'-GCGCG) (fraction); higher = brighter dye fluorescence (less quenching)
details: dye: Cy5 (3' terminal)
quantity-kind: background-corrected fluorescence
Output spec: single numeric token, no unit.

**Query** Consider the sequence `TTTTTTCATGATGCTGATCATTTTTTTTTTTTTTTGCACG` . State its measured background-corrected fluorescence.
**Result** 0.383

**Query** Complete the entry with background-corrected fluorescence for TTTTTGCATGATCAGCATCATTTTTTTTTTTTTTTTCGTG [GTGCT]
**Result** 0.441

**Query** Note down background-corrected fluorescence recorded for TTTTTTCATCATGAGCATCATTTTTTTTTTTTTTTGGCTG [GTCGG]
**Result** 0.364

**Query** Kindly indicate its recorded background-corrected fluorescence. Item: TTTTTTGCTGCTGAGCATGATTTTTTTTTTTTTTTAACTC [CTCAA]
**Result** 0.293
